Field: inhibition. Provide a value for each of the compounds that follow.
measurement.protocol: M. tuberculosis H37Rv growth inhibitors, H37Rv strain (AID 1626);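 further: bacteria incubated seven days before Alamar blue readout; 0% = bacteria only wells and 100% = bacteria with antibiotic wells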
recorded.conditions: stronger effect = higher value, concentration not given here
About 2,000 (0.91%) of roughly 220,000 compounds were called active. Another 2% or so got no clear call; they are omitted. A selection follows. Results with a measured potency or affinity are listed apart.

Example compounds with recorded inhibition:
>>> df
                                   compound  measured_attribute      readout_value
0            COc1ccccc1/C=N/NC(=S)NCc1ccco1          inhibition  -0.41% (inactive)
1      Cc1ccc(NC(=O)Nc2nnc(-c3ccccc3)o2)cc1          inhibition   3.09% (inactive)
2  COc1ccc(NC(=O)O/N=C2/CCCc3ccc(OC)cc32)cc1          inhibition  -0.42% (inactive)
3  CCCC(=O)NC(C)c1nc2ccccc2n1CC (centres undefined)          inhibition   1.48% (inactive)
4  CCc1nccn1-c1cc(C(C)(C)C)nc2c(-c3ccc(Cl)cc3)cnn12          inhibition   3.22% (inactive)

Working through the 6 compounds below one at a time, give inhibition for each.
1. Brc1ccccc1-c1nnc(SCc2nc3ccccc3s2)o1
2. Nc1nnc(SCC(=O)c2ccc([N+](=O)[O-])cc2)s1
3. COc1ccc(Br)cc1CN(C)C(C)C(=O)Nc1cc([N+](=O)[O-])ccc1OC (centres undefined)
4. COc1ccc(-c2csc(NC(=O)C3CC(=O)N(c4ccc5c(c4)OCCO5)C3)n2)cc1 (centres undefined)
5. CC(SC1CCCC1)C(=O)NC(C)(C#N)C(C)C (centres undefined)
6. c1ccc(CCNc2ncnc3ccccc23)cc1

*A*
1: 36% (inactive); 2: -6.55% (inactive); 3: 6.06% (inactive); 4: 28% (inactive); 5: -2.88% (inactive); 6: -6.97% (inactive)

* * *

measurement.protocol: M. tuberculosis H37Rv growth inhibitors, H37Rv strain (AID 1626)
recorded.conditions: stronger effect = higher value, concentration not given here
Among all 220,000 compounds or so, about 2,000 (0.91%) were called active. Inconclusive results (about 2%) are left out. Not all results are given here. Potency and affinity values are given separately.
Field: inhibition. Provide a value for each of the compounds that follow.
Answers are plain numbers, in %.

Example compounds with recorded inhibition:
                                   compound  measured_attribute  readout_value
0                  Cc1cccnc1NC(=O)Nc1ccccc1          inhibition          -2.38
1        O=C(CN1CCOCC1)NNC(=S)Nc1ccc(Cl)cc1          inhibition            4.8
2  Cc1ccc(S(=O)(=O)/N=C(\c2ccc(F)cc2)n2c(C)nc3ccccc32)cc1          inhibition           4.23
3  COc1ccc(CNC(=O)COC(=O)c2n[nH]c3ccccc23)cc1          inhibition           10.8
4                     COC(=O)c1ccc2ccccc2n1          inhibition          -11.4

Working through the 3 compounds below one at a time, give inhibition for each.
1. CCOC(=O)C1(C)NC(c2ccc(OC)c(OC)c2)C2C(=O)N(CC)C(=O)C21 (stereo not drawn)
2. O=c1c2ccccc2c(-c2ccccc2)nn1-c1ccccc1
3. Cn1c(CNC(=O)c2ccc(F)cc2)nc2ccccc21

*A*
-0.15
8.6
-0.81

Working through the 5 compounds below one at a time, give inhibition for each.
1. NC(=O)c1oc2ccccc2c1NC(=O)c1nc2ccccc2s1
2. Nc1nc2ccccc2n1C(=O)CCc1ccccc1
3. O=C(Nc1ccc2c(c1)OCO2)C1CCN(C(=O)c2cccs2)CC1
4. O=C(Nc1ccccc1)Nc1nnc(-c2ccccc2)o1
5. O=C(Nc1ccccc1)c1nc2ccccc2s1

*A*
-3.12
0.09
0.36
6.54
27.8

* * *

measurement.protocol: M. tuberculosis H37Rv growth inhibitors, H37Rv strain (AID 1626);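 further: bacteria incubated seven days before Alamar blue readout; 0% = bacteria only wells and 100% = bacteria with antibiotic wells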
recorded.conditions: stronger effect = higher value, concentration not given here
The campaign covered roughly 220,000 compounds. About 2,000 (0.91%) were called active. Not shown: some 2% with an inconclusive outcome. Not all results are given here. Entries with a potency or affinity are not part of this list.
Field: inhibition. Provide a value for each of the compounds that follow.

Example compounds with recorded inhibition:
                                smiles_text  measured_attribute      readout_value
0               COc1cc(CNC2CCCCCC2)cc(OC)c1          inhibition   9.94% (inactive)
1         CCOC(=O)c1cc(N)cc([N+](=O)[O-])c1          inhibition   5.48% (inactive)
2  COc1ccc(NS(=O)(=O)c2ccc(Cl)c(C(=O)O)c2)cc1S(=O)(=O)N1CCCCC1          inhibition  -7.19% (inactive)

Continue with the compound presented below.
*Q* Give inhibition for COC(=O)c1cc(Sc2c(Cl)cccc2Cl)ccn1
*A* 34% (inactive)

* * *

measurement.protocol: M. tuberculosis H37Rv growth inhibitors, H37Rv strain (AID 1626);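 further: bacteria incubated seven days before Alamar blue readout; 0% = bacteria only wells and 100% = bacteria with antibiotic wells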
recorded.conditions: stronger effect = higher value, concentration not given here
Out of some 220,000 compounds screened, about 2,000 (0.91%) were called active. Inconclusive results (about 2%) are left out. Not all results are given here. Measured potencies and affinities stand elsewhere.
measured.attribute: inhibition (%)
Give bare numbers, in %.

Example molecules with recorded inhibition:
In [3]: df
Out[3]:
                               molecule  readout_value
0   CCOC(=O)CSc1nc(-c2ccccc2)nc2ccccc12          -6.27
1           Cc1cccc(NCc2nc3ccccc3n2C)c1          -0.92
2  Cc1cccc(-c2nsc(SCC(=O)Nc3nccs3)n2)c1           10.4
3                    Cn1c(Cl)nc2ccccc21           -1.9
4       COc1ccc(C(=O)c2ccc(OC)cc2OC)cc1           0.13

Working through the 4 molecules below one at a time, give inhibition for each.
1. O=C(O)CCC(=O)Nc1ccccc1C(=O)NCc1ccco1
2. CC(C)OP(=O)(OC(C)C)C(O)c1ccc(Br)cc1 (centres undefined)
3. Cc1cccc(-c2nsc(SCC(=O)c3ccc(Cl)cc3)n2)c1
4. Cc1ccc(NCc2nc3ccccc3n2C)cc1

*A*
1. -1.28
2. -5.46
3. 94
4. 6.89

* * *

measurement.protocol: M. tuberculosis H37Rv growth inhibitors, H37Rv strain (AID 1626);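 further: bacteria incubated seven days before Alamar blue readout; 0% = bacteria only wells and 100% = bacteria with antibiotic wells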
recorded.conditions: stronger effect = higher value, concentration not given here
About 2,000 (0.91%) of roughly 220,000 compounds were called active. Not shown: some 2% with an inconclusive outcome. A selection follows. Potency and affinity values are given separately.
Field: inhibition. Provide a value for each of the compounds that follow.

Example compounds with recorded inhibition:
>>> print(df.to_string())
                                   compound      readout_value
0     COCCOc1ccc(C(F)(F)F)cc1Nc1nc2ccccc2o1   11.7% (inactive)
1  CCc1nnc(NC(=O)CSc2nnc(COc3ccccc3)n2Cc2ccccc2)s1  -6.06% (inactive)
2  O=[N+]([O-])c1ccc(O)c(C=Nc2ccc3c(c2)OCCO3)c1   77.5% (inactive)
3  Cc1ccc(N(CC(=O)NC2CCCC2)C(=O)CCCC(=O)Nc2ccccn2)cc1C     10% (inactive)
4  CC(=O)Nc1ccc2c(CSc3nnc(-c4cccnc4)n3-c3ccc(C)cc3C)cc(=O)oc2c1  -5.62% (inactive)
5  Cc1[nH]nc2c1C(c1ccc(Cl)cc1)C(C#N)=C(N)O2 (stereo unspecified)  -11.2% (inactive)
6  COCCn1c(NC(=S)NC(=O)C23CC4CC(CC(C4)C2)C3)cc(=O)[nH]c1=O  -0.61% (inactive)
7  Cc1ccc([N+](=O)[O-])cc1NC(=O)CN(C(=O)c1ccc(Cl)cc1)C1CCCCC1   3.68% (inactive)

Working through the 2 compounds below one at a time, give inhibition for each.
1. O=c1[nH]c(=O)n(CCOc2ccc(Cl)cc2)cc1Br
2. Cc1cccn2c(=O)c(C=Nc3ccccc3)c(NCCO)nc12

*A*
["-3.97% (inactive)", "2.59% (inactive)"]

Working through the 6 compounds below one at a time, give inhibition for each.
1. Cc1ccc2cc(CN(CC3CCCO3)C(=S)NCc3ccco3)c(=O)[nH]c2c1 (stereo unspecified)
2. COc1ccccc1N1CCN(c2ncnc3c2oc2ccccc23)CC1
3. Cc1[nH]nc2c1C(c1ccc(-c3ccccc3C#N)o1)C(C#N)=C(N)O2 (stereo unspecified)
4. CCOC(=O)c1c(C)n(C)c2ccc(OCC(N)=O)cc12
5. Cn1c(=O)oc2cc(S(=O)(=O)N3CCC4(CC3)OCCO4)ccc21
6. COc1cc2c(cc1OC)C(c1ccco1)CC(=O)N2 (stereo unspecified)

*A*
1: 1.74% (inactive); 2: -5.65% (inactive); 3: -1.71% (inactive); 4: 0.2% (inactive); 5: -6.19% (inactive); 6: -0.34% (inactive)

Working through the 8 compounds below one at a time, give inhibition for each.
1. CCOC(=O)CNC(=O)CSc1ncnc2c1cnn2-c1ccc(C)cc1
2. O=C(COc1ccc2ccccc2c1)NCCn1ccc2ccccc21
3. COc1cc(OC)c2c(=O)cc(-c3cccnc3)oc2c1
4. CCCN1C(=O)c2ccccc2NC1c1ccc(OC)c(CSc2ccccn2)c1 (stereo unspecified)
5. Cc1nc(N2CCC(C)CC2)c2oc3ccccc3c2n1
6. N#CCCn1c(C(C#N)(CCC#N)CCC#N)nc2ccccc21
7. O=C(COC(=O)/C=C/c1ccc(Br)o1)Nc1ccccc1F
8. Cc1cc2ccccc2n1CCNC(=O)COc1ccccc1

*A*
-3.46% (inactive)
9.42% (inactive)
-11.6% (inactive)
-2.45% (inactive)
10% (inactive)
-2.99% (inactive)
8.52% (inactive)
13.1% (inactive)

Working through the 2 compounds below one at a time, give inhibition for each.
1. CSc1ncnc2c1cnn2-c1ccc(C)cc1C
2. NC(=O)c1ccc(NC(=O)CCCc2nc(-c3ccccc3Cl)no2)cc1

*A*
["11.1% (inactive)", "-1.91% (inactive)"]
